Cited source: patent US9718823B2

target: PDGFR β enzyme (Homo sapiens); construct: purchased Invitrogen P3082; experiment: Inhibitory activity to PDGFR β enzyme, HTRF kinEASE TK kit; type: biochemical; details: 1 μM; read-out: Inhibition rate % (PDGFR β)
Parameter inhibition at 1 µM: see the listing below.
Assay endpoint: inhibition at 1 µM (%)

- c1ccc(-c2ccnc3ccc(Nc4nc(NCC5CCCC5)c5nc[nH]c5n4)cc23)cc1: 33.1
- COc1cccc(-c2ccnc3ccc(Nc4nc(NC5CCC5)c5nc[nH]c5n4)cc23)c1: 9.74
- OCCCNc1nc(Nc2ccc3nccc(-c4ccccc4)c3c2)nc2[nH]cnc12: 17
- c1cc(-c2ccc3c(c2)OCO3)c2cc(Nc3nc(NC4CC4)c4nc[nH]c4n3)ccc2n1: -3.44
- COC(=O)c1ccc(-c2ccnc3ccc(Nc4nc(NC5CC5)c5nc[nH]c5n4)cc23)cc1: 4.39
- COC(=O)c1cccc(-c2ccnc3ccc(Nc4nc(NC5CC5)c5nc[nH]c5n4)cc23)c1: -0.63
- c1ccc(Oc2nc(Nc3ccc4nccc(N5CCNCC5)c4c3)nc3[nH]cnc23)cc1: 7.3
- c1cnc2ccc(Nc3nc(OC4CCC4)c4nc[nH]c4n3)cc2c1: 98.4
- NCCNc1nc(Nc2ccc3nccc(-c4ccccc4)c3c2)nc2[nH]cnc12: 33.4
- CCOc1cccc(-c2ccnc3ccc(Nc4nc(NC5CC5)c5nc[nH]c5n4)cc23)c1: 4.5
- CSc1ccccc1-c1ccnc2ccc(Nc3nc(NC4CC4)c4nc[nH]c4n3)cc12: -7.6
- CSc1cccc(-c2ccnc3ccc(Nc4nc(NC5CC5)c5nc[nH]c5n4)cc23)c1: -5.37
- CC(C)Oc1nc(Nc2ccc3nccc(N4CCNCC4)c3c2)nc2[nH]cnc12: 3.93
- COC(=O)C1(Nc2nc(Nc3ccc4nccc(-c5ccccc5)c4c3)nc3[nH]cnc23)CC1: 31.2
- COc1ccccc1-c1ccnc2ccc(Nc3nc(NC4CC4)c4nc[nH]c4n3)cc12: -5.49
- c1ccc(-c2ccnc3ccc(Nc4nc(NC5CC5)c5ncn(C6CCNCC6)c5n4)cc23)cc1: 17
- c1cc(N2CCNCC2)c2cc(Nc3nc(NC4CC4)c4nc[nH]c4n3)ccc2n1: 4.71
- OCCNc1nc(Nc2ccc3nccc(-c4ccccc4)c3c2)nc2[nH]cnc12: 11.7
- FC(F)(F)Cn1cnc2c(NC3CC3)nc(Nc3ccc4nccc(-c5ccccc5)c4c3)nc21: 21.5
- COc1ccc(-c2ccnc3ccc(Nc4nc(NC5CC5)c5nc[nH]c5n4)cc23)cc1OC: -8.59

---

target: PI3K α (Homo sapiens); construct: purchased Millipore 14-602; assay: Inhibitory activity to PI3K α, PI 3-Kinase (human) HTRF Assay kit; assay type: biochemical; conditions: 1 μM; read-out: % Inhibition Rate to PI3K α
Sequence (P42336 whole entry): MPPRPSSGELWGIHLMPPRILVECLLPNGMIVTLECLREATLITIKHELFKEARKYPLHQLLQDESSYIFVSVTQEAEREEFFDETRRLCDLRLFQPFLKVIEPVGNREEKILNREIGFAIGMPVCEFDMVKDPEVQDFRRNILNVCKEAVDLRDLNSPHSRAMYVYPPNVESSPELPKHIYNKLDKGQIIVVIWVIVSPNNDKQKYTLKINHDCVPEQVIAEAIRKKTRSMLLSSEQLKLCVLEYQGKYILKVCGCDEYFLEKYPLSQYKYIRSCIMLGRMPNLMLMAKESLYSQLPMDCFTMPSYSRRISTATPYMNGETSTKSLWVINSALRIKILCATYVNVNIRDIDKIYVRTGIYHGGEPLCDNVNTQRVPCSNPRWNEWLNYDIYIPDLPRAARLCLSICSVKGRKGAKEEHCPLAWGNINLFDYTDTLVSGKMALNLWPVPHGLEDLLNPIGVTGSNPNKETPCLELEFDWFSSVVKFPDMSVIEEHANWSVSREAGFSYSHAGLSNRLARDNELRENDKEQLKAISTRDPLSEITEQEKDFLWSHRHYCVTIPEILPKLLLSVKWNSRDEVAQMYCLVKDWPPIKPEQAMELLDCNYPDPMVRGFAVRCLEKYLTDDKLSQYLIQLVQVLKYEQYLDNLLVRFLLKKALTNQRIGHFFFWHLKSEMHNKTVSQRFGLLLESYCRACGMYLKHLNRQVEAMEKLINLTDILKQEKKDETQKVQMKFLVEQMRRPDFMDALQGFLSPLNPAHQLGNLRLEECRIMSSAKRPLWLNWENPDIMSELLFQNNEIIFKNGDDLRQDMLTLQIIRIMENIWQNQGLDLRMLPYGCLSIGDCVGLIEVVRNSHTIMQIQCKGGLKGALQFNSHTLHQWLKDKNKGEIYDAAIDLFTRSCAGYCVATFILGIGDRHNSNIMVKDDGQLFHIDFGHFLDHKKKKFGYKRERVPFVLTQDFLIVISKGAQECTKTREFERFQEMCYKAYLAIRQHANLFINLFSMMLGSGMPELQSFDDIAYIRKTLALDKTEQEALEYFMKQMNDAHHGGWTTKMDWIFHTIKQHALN
Sequence (P27986 whole entry partner): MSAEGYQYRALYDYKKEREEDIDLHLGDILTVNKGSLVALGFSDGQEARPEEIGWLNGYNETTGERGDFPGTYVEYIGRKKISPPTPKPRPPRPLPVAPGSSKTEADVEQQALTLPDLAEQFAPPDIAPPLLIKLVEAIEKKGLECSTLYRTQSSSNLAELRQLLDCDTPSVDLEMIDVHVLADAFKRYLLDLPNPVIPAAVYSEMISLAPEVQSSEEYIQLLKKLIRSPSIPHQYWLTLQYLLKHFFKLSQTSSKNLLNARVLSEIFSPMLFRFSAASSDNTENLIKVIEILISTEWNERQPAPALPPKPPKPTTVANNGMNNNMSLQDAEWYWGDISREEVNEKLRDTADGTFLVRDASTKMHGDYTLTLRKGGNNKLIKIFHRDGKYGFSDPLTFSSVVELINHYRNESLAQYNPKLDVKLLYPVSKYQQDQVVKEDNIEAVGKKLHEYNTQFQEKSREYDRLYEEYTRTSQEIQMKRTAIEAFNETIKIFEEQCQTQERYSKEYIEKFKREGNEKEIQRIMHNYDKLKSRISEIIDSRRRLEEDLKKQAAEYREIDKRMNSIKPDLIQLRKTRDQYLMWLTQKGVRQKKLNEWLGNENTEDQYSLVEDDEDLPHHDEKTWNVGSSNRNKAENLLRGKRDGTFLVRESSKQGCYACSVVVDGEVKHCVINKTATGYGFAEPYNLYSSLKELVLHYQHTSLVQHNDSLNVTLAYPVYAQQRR
# inhibition at 1 µM >= 30% gives label 1, anything below gives label 0

• COCCNc1nc(Nc2ccc3nccc(-c4ccccc4)c3c2)nc2[nH]cnc12 = label 0
• OCCNc1nc(Nc2ccc3nccc(-c4ccccc4)c3c2)nc2[nH]cnc12 = label 1
• c1cc(-c2ccc3c(c2)OCO3)c2cc(Nc3nc(NC4CC4)c4nc[nH]c4n3)ccc2n1 = label 1
• c1ccc(-c2ccnc3ccc(Nc4nc(NC5CC5)c5nc[nH]c5n4)cc23)cc1 [MED1007-91, dihydrate di-methanesulfonate] = label 1
• c1ccc(-c2ccnc3ccc(Nc4nc(NC5CC5)c5ncn(C6CCNCC6)c5n4)cc23)cc1 = label 0
• c1ccc(-c2ccnc3ccc(Nc4nc(NC5CCCC5)c5nc[nH]c5n4)cc23)cc1 = label 0
• c1ccc(-c2ccnc3ccc(Nc4nc(NCC5CCCC5)c5nc[nH]c5n4)cc23)cc1 = label 0

---

Parameter inhibition at 1 µM: see the listing below.
molecular target: PI3Kδ (Homo sapiens, UniProt O00329); construct: purchased Millipore 14-604; test: Inhibitory activity to PI3K δ, PI 3-Kinase (human) HTRF Assay kit; assay type: biochemical; conditions: 1 μM (Table 7); read-out: Inhibition rate % to PI3Kδ
Sequence (O00329 whole entry, one chain of several): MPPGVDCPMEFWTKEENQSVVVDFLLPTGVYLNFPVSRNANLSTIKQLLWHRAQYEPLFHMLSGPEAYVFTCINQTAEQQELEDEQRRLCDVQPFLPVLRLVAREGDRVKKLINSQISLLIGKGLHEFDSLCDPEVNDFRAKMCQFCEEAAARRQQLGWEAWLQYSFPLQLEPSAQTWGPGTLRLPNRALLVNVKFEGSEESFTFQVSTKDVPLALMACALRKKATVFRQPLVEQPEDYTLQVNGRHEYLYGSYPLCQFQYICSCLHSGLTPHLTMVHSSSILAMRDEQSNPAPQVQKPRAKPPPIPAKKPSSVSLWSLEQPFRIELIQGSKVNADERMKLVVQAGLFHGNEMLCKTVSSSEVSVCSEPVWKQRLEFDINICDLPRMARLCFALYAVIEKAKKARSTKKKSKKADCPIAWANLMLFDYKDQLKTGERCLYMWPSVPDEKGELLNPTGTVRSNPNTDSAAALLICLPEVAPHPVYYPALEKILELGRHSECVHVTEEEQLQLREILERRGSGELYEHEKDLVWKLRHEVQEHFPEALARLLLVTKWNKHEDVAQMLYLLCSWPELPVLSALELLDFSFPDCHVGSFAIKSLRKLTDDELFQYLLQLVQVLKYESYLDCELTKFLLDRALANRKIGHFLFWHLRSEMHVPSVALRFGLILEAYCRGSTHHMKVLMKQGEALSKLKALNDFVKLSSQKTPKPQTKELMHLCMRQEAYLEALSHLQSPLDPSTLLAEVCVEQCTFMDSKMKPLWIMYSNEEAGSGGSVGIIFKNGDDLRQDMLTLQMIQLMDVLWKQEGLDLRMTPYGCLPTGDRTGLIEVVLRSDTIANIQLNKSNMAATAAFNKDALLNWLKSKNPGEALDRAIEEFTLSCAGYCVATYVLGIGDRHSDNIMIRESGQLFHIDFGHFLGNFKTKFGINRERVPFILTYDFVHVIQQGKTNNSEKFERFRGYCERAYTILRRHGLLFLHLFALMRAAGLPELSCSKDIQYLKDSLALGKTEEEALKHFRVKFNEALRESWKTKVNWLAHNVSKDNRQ
Assay endpoint: inhibition at 1 µM (%)

* COc1ccccc1-c1ccnc2ccc(Nc3nc(NC4CC4)c4nc[nH]c4n3)cc12 | 27.3
* CCOc1cccc(-c2ccnc3ccc(Nc4nc(NC5CC5)c5nc[nH]c5n4)cc23)c1 | 22.7
* c1ccc(-c2ccnc3ccc(Nc4nc(NC5CCCC5)c5nc[nH]c5n4)cc23)cc1 | 32.9
* c1cc(-c2ccc3c(c2)OCO3)c2cc(Nc3nc(NC4CC4)c4nc[nH]c4n3)ccc2n1 | 54.1
* c1cnc2ccc(Nc3nc(OC4CCCC4)c4nc[nH]c4n3)cc2c1 | 44.4
* COC[C@H]1OC(=O)c2coc3c2[C@@]1(C)C1=C(C3=O)[C@@H]2CCC(=O)[C@@]2(C)C[C@H]1OC(C)=O [Wortmannin, reference compound] | 95.4
* OCCCNc1nc(Nc2ccc3nccc(-c4ccccc4)c3c2)nc2[nH]cnc12 | 6.41
* CSc1ccccc1-c1ccnc2ccc(Nc3nc(NC4CC4)c4nc[nH]c4n3)cc12 | 23
* c1ccc(Oc2nc(Nc3ccc4nccc(N5CCNCC5)c4c3)nc3[nH]cnc23)cc1 | 13.3
* COCCNc1nc(Nc2ccc3nccc(-c4ccccc4)c3c2)nc2[nH]cnc12 | 20.7
* COc1ccc(-c2ccnc3ccc(Nc4nc(NC5CC5)c5nc[nH]c5n4)cc23)cc1OC | 71.8
* CCC(CC)Oc1nc(Nc2ccc3nccc(-c4ccccc4)c3c2)nc2[nH]cnc12 | 74.2
* COc1ccc(-c2ccnc3ccc(Nc4nc(NC5CC5)c5nc[nH]c5n4)cc23)cc1 | 37.5
* CSc1cccc(-c2ccnc3ccc(Nc4nc(NC5CC5)c5nc[nH]c5n4)cc23)c1 | 31
* COCCCNc1nc(Nc2ccc3nccc(-c4ccccc4)c3c2)nc2[nH]cnc12 | 11.3
* c1ccc(-c2ccnc3ccc(Nc4nc(NC5CCC5)c5nc[nH]c5n4)cc23)cc1 | 10.9
* CC(C)Oc1nc(Nc2ccc3ncccc3c2)nc2[nH]cnc12 | 40.2
* Fc1cccc(-c2ccnc3ccc(Nc4nc(NC5CC5)c5nc[nH]c5n4)cc23)c1 | 14.1
* c1ccc(-c2ccnc3ccc(Nc4nc(NC5CC5)c5ncn(C6CCNCC6)c5n4)cc23)cc1 | 4.75
* c1ccc(-c2ccnc3ccc(Nc4nc(OC5CCCCC5)c5nc[nH]c5n4)cc23)cc1 | 29.3
* COC(=O)c1ccc(-c2ccnc3ccc(Nc4nc(NC5CC5)c5nc[nH]c5n4)cc23)cc1 | 18
* Fc1ccc(-c2ccnc3ccc(Nc4nc(NC5CCC5)c5nc[nH]c5n4)cc23)cc1 | 33.9
* CC(C)Oc1nc(Nc2ccc3nccc(-c4ccccc4)c3c2)nc2[nH]cnc12 | 39.6

---

biological target: PI3Kδ (Homo sapiens); construct: purchased Millipore 14-604; assay: Inhibitory activity to PI3K δ, PI 3-Kinase (human) HTRF Assay kit; type: biochemical; details: 10 μM (Table 7); read-out: Inhibition rate % to PI3Kδ
Parameter inhibition at 10 µM: see the listing below.
Assay endpoint: inhibition at 10 µM (%)

* c1ccc(-c2ccnc3ccc(Nc4nc(N5CCCC5)c5nc[nH]c5n4)cc23)cc1 | 87.5
* c1ccc(-c2ccnc3ccc(Nc4nc(OC5CCCCC5)c5nc[nH]c5n4)cc23)cc1 | 119
* CC(C)Nc1nc(Nc2ccc3nccc(-c4ccccc4)c3c2)nc2[nH]cnc12 | 95.6
* c1cnc2ccc(Nc3nc(OC4CCC4)c4nc[nH]c4n3)cc2c1 | 88.5

---

target: PDGFR β enzyme (Homo sapiens, UniProt P09619); construct: purchased Invitrogen P3082; assay: Inhibitory activity to PDGFR β enzyme, HTRF kinEASE TK kit; assay type: biochemical; conditions: 10 μM; read-out: Inhibition rate % (PDGFR β)
Sequence (P09619 33-1106): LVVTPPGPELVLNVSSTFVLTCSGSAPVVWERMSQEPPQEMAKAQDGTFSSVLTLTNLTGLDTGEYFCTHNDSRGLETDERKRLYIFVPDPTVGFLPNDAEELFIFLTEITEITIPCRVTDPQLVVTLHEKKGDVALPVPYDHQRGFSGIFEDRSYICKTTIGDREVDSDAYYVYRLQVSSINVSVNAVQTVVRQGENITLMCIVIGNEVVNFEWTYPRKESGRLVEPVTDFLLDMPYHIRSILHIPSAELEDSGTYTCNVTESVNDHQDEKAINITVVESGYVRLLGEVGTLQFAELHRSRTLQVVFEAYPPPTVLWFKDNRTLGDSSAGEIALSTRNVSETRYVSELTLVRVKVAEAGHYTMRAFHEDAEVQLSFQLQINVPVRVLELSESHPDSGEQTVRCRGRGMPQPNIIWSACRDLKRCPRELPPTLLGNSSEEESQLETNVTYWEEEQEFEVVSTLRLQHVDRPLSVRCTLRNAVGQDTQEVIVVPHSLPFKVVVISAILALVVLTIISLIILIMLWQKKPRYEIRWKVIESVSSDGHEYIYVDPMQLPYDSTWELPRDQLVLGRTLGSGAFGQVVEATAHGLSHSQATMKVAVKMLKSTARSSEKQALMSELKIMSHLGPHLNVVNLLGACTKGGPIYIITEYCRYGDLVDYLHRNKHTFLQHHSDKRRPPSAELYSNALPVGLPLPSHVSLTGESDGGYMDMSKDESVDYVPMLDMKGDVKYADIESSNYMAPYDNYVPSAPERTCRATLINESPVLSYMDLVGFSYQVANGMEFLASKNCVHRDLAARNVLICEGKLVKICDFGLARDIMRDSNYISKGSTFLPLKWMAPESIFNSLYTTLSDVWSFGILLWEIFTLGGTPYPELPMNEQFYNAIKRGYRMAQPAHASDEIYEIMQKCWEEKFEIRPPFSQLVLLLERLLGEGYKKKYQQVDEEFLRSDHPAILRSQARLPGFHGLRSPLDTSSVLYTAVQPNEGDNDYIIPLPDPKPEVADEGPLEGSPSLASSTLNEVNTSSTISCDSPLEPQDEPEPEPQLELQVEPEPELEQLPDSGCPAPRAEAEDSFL
Assay endpoint: inhibition at 10 µM (%)

* CC(C)Oc1nc(Nc2ccc3nccc(N4CCNCC4)c3c2)nc2[nH]cnc12 [MED1007-58] | 29.5
* c1ccc(-c2ccnc3ccc(Nc4nc(NCC5CCCC5)c5nc[nH]c5n4)cc23)cc1 [MED1007-99] | 9.88
* c1cc(-c2ccc3c(c2)OCO3)c2cc(Nc3nc(NC4CC4)c4nc[nH]c4n3)ccc2n1 [MED1007-85] | 29.8
